target: rCYP2D6 (Homo sapiens); assay: Metabolic stability / reaction phenotyping with recombinant human CYP2D6; conditions: human, recombinant human CYP2D6, 1 µM, pH 7.4
Sequence (P10635 whole entry): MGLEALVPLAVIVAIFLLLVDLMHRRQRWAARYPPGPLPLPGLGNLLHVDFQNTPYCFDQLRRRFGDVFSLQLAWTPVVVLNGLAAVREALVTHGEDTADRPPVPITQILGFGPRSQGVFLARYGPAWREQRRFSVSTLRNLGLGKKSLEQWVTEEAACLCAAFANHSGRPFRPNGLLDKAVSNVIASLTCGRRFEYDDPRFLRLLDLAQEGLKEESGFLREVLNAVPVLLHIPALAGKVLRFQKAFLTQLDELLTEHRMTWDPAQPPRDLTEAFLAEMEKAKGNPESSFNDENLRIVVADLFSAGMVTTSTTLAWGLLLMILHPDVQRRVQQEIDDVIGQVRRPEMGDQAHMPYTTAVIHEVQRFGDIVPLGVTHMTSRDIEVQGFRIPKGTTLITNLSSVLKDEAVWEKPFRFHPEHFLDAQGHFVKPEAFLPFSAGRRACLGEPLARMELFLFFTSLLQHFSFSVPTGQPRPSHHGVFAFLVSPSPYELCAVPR
Endpoint Name: Predicted Microsomal Clint, CYP2D6
Reply with the number and its unit after it.

Record `CNC(=O)Oc1cc(C)c(SC)c(C)c1` . Reported Predicted Microsomal Clint, CYP2D6: 17.239 µL/min/mg Protein

Lab note: CC(C)(O)c1ccccc1CC[C@@H](SCC1(CC(=O)O)CC1)c1cccc(/C=C/c2ccc3ccc(Cl)cc3n2)c1 [Montelukast, montelukast, reference compound] gave Predicted Microsomal Clint, CYP2D6 of 0.258 µL/min/mg Protein

// Predicted Microsomal Clint, CYP2D6 lookup, compound = O=C1Cc2cc(CCN3CCN(c4nsc5ccccc45)CC3)c(Cl)cc2N1 [Ziprasidone, ziprasidone, reference compound] , result: 0.127 µL/min/mg Protein

Predicted Microsomal Clint, CYP2D6 measured on CSc1nc2cc(Cl)c(Oc3cccc(Cl)c3Cl)cc2[nH]1 [Triclabendazole, reference compound] = 4.448 µL/min/mg Protein

Lab book: Predicted Microsomal Clint, CYP2D6 of CCCSc1ccc2nc(NC(=O)OC)[nH]c2c1 [Albendazole, albendazole, reference compound] noted as 3.491 µL/min/mg Protein
